Biological target: wt human LRRK2, catalytic site (Homo sapiens)
Construct: wt human LRRK2, catalytic site; purchased ThermoFisher/USA
Test: TR-FRET LanthaScreen Tb Kinase Activity Assay (Example 71)
Assay type: biochemical
Conditions: compounds of Table 4, 38 uM ATP, method names only wt human LRRK2, read-out: IC50, Inhibitory Activity Toward LRRK2 (Wt) and LRRK2 (G2019)
pIC50: −log10 of the molar value.
endpoint.label: pIC50

[[record]]
compound = "Fc1ccc(C2CC2)c(F)c1C1=Nc2cn[nH]c2-c2cnn3c2N1CC3"
result = "> 8.00"

[[record]]
compound = "Fc1cccc(F)c1C1=Nc2cn[nH]c2-c2cc(C(F)(F)F)cc3[nH]cc1c23"
result = "> 8.00"


What value of pIC50 on wt human LRRK2, catalytic site (Homo sapiens) does Fc1cc(Cl)cc(F)c1C1Nc2cn[nH]c2-c2cnn3c2N1CCC3 (stereo not shown) have?
6.00 to 7.00

What value of pIC50 on wt human LRRK2, catalytic site (Homo sapiens) does Cc1n[nH]c2c1N=C(c1c(F)cccc1F)c1c[nH]c3cc(Cl)cc-2c13 have?
> 8.00

What value of pIC50 on wt human LRRK2, catalytic site (Homo sapiens) does OCc1cc(F)c(C2=Nc3cn[nH]c3-c3cnn4c3N2CCC4)c(F)c1 have?
7.00 to 8.00

What value of pIC50 on wt human LRRK2, catalytic site (Homo sapiens) does Fc1ccc(Br)c(F)c1C1=Nc2cn[nH]c2-c2cnn3c2N1CCC3 have?
> 8.00

What value of pIC50 on wt human LRRK2, catalytic site (Homo sapiens) does Fc1cccc(Cl)c1C1=Nc2cn[nH]c2-c2cnn3c2N1CCC3 have?
> 8.00

###

Target: G2019S human LRRK2, catalytic site (Homo sapiens, UniProt Q5S007, G2019S)
Construct: G2019S human LRRK2, catalytic site
Sequence (Q5S007 1879-2138 G2019S limits assumed): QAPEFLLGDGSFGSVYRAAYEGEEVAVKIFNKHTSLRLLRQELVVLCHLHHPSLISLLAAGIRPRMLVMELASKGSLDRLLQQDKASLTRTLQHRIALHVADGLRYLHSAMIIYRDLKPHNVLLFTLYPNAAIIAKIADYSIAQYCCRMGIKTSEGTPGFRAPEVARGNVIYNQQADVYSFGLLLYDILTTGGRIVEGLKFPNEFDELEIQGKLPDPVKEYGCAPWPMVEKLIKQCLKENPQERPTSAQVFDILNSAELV
Assay: TR-FRET LanthaScreen Eu Kinase Binding Assay, LRRK2 G2019S (Example 72)
Conditions: Example 72 text; one statement for LRRK2 (Wt) and LRRK2 (G2019); read-out: IC50, Inhibitory Activity Toward LRRK2 (G2019)
pIC50: −log10 of the molar value.
endpoint.label: pIC50

Examples with answers:
[[record]]
structure = "Fc1cccc(F)c1C1=Nc2cn[nH]c2-c2nnc3cccn1c2-3"
endpoint_label = "pIC50"
result = "7.00 to 8.00"

[[record]]
structure = "Cc1cn2c3c(cccc13)-c1n[nH]cc1N=C2c1c(F)cccc1F"
endpoint_label = "pIC50"
result = "> 8.00"


Here is another molecule to look at.
Report pIC50 for Fc1cccc(F)c1C1=Nc2cn[nH]c2-c2ccc(F)c3cnn1c23 please.
> 8.00

###

Molecular target: wt human LRRK2, catalytic site (Homo sapiens, UniProt Q5S007)
Construct: wt human LRRK2, catalytic site; purchased ThermoFisher/USA
Sequence (Q5S007 1879-2138 limits assumed): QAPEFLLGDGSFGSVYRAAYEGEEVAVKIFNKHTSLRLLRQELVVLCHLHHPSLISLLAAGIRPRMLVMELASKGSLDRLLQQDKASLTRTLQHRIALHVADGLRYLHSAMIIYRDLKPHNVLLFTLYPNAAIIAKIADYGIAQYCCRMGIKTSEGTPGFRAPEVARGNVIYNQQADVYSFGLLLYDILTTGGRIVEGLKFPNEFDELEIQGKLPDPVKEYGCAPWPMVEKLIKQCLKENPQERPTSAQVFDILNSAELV
Experiment: TR-FRET LanthaScreen Tb Kinase Activity Assay (Example 71)
Type: biochemical
Conditions: compounds of Table 4, 38 uM ATP, method names only wt human LRRK2, read-out: IC50, Inhibitory Activity Toward LRRK2 (Wt) and LRRK2 (G2019)
pIC50: −log10 of the molar value.
endpoint.label: pIC50

Examples with answers:
[[record]]
compound = "Clc1ccccc1C1=Nc2cn[nH]c2-c2cnn3c2N1CCCC3 [Compound 364]"
result = "6.00 to 7.00"

[[record]]
compound = "Fc1cccc(F)c1C1=Nc2c(Cl)n[nH]c2-c2cnn3c2N1CC3 [Compound 375]"
result = "> 8.00"

[[record]]
compound = "c1ccc(C2=Nc3cn[nH]c3-c3cnn4c3N2CCC4)cc1 [Compound 361]"
result = "7.00 to 8.00"

[[record]]
compound = "OCc1cc(F)c(C2=Nc3cn[nH]c3-c3cc(C(F)(F)F)cc4[nH]cc2c34)c(F)c1 [Compound 406]"
result = "> 8.00"


What value of pIC50 on wt human LRRK2, catalytic site (Homo sapiens, UniProt Q5S007) does Fc1ccccc1C1=Nc2cn[nH]c2-c2cnn3c2N1CCCC3 [Compound 363] have?
6.00 to 7.00

What value of pIC50 on wt human LRRK2, catalytic site (Homo sapiens, UniProt Q5S007) does C[C@H]1CN2C(c3c(F)cccc3F)=Nc3cn[nH]c3-c3cnn(c32)C1 (single isomer, unassigned) [Compound 350] have?
7.00 to 8.00

What value of pIC50 on wt human LRRK2, catalytic site (Homo sapiens, UniProt Q5S007) does Cc1cc(F)c(C2=Nc3cn[nH]c3-c3cnn4c3N2CCC4)c(F)c1 [Compound 343] have?
> 8.00

What value of pIC50 on wt human LRRK2, catalytic site (Homo sapiens, UniProt Q5S007) does Cc1n[nH]c2c1N=C(c1c(F)cc(OC(F)F)cc1F)N1CCn3ncc-2c31 [Compound 398] have?
> 8.00
